- Tested on: human red blood cells (hRBC)
- protocol-notes: Hemolysis
- Type: cell-based
- test-context: 100
- Procedure: Hemolysis of red blood cells is often employed for assessment of toxicity of related compounds such as protegrin or tachyplesin. Values are given as %-lysis of red blood cells observed at a concentration of 100 μg/ml. Typical values determined for cationic peptides such as protegrin and tachyplesin range between 30-40% with average MIC-values of 1-5 μg/ml over a wide range of pathogens. The peptides were tested for their hemolytic activity against human red blood cells (hRBC). […]
Non-standard residues stand in square brackets, D forms with d. Residues, ends and D or L forms follow the SMILES beside them. Dab = NCC[C@H](N)C(=O)O
test-readout: Hemolysis at 100 μg/ml (%)
Write it as a number; the unit % goes unstated.

Exercise: Please report the recorded Hemolysis at 100 μg/ml for CC[C@H](C)[C@@H]1NC(=O)[C@H](Cc2c[nH]c3ccccc23)NC(=O)[C@H]([C@@H](C)O)NC(=O)[C@@H]2CCCN2C(=O)[C@H]2CCCN2C(=O)[C@H](CCN)NC(=O)[C@H](C)NC(=O)[C@H](CCN)NC(=O)[C@H](CCN)NC(=O)[C@H](Cc2ccc(O)cc2)NC(=O)[C@H](CCN)NC(=O)[C@H](CCN)NC(=O)[C@H](CCCCN)NC(=O)[C@H](CCN)NC1=O [Example 20] (cyclo(TWI[Dab]K[Dab][Dab]Y[Dab][Dab]A[Dab][dP]P)) .
Solution: 0.2

* * *

- System: P. aeruginosa
Non-standard residues stand in square brackets, D forms with d. Residues, ends and D or L forms follow the SMILES beside them. Cha = N[C@@H](CC1CCCCC1)C(=O)O; Chg = N[C@H](C(=O)O)C1CCCCC1; dDab = NCC[C@@H](N)C(=O)O; Orn = NCCC[C@H](N)C(=O)O; Dab = NCC[C@H](N)C(=O)O
Please respond with reported Average MIC for every item in the list.
Write it as a number; the unit µg/mL goes unstated.

Exercise: Query for P. aeruginosa: what Average MIC does the record show for C[C@@H]1NC(=O)[C@H](CCN)NC(=O)[C@H](CCN)NC(=O)[C@H](Cc2c[nH]c3ccccc23)NC(=O)[C@H](CCN)NC(=O)[C@H](CCN)NC(=O)[C@H](CCCCN)NC(=O)[C@H](CCN)NC(=O)[C@H](CC2CCCCC2)NC(=O)[C@H](Cc2c[nH]c3ccccc23)NC(=O)[C@H]([C@@H](C)O)NC(=O)[C@@H]2CCCN2C(=O)[C@H]2CCCN2C(=O)[C@H](CCN)NC1=O [Example 34] (cyclo(TW[Cha][Dab]K[Dab][Dab]W[Dab][Dab]A[Dab][dP]P)) ?
Solution: 0.33

Exercise: Query for P. aeruginosa: what Average MIC does the record show for C[C@@H]1NC(=O)[C@H](CCN)NC(=O)[C@H](CCN)NC(=O)[C@H](Cc2c[nH]c3ccccc23)NC(=O)[C@H](CCN)NC(=O)[C@H](CCN)NC(=O)[C@H](CCCCN)NC(=O)[C@H](CCN)NC(=O)[C@H](C2CCCCC2)NC(=O)[C@H](Cc2c[nH]c3ccccc23)NC(=O)[C@H]([C@@H](C)O)NC(=O)[C@@H]2CCCN2C(=O)[C@H]2CCCN2C(=O)[C@H](CCN)NC1=O [Example 33] (cyclo(TW[Chg][Dab]K[Dab][Dab]W[Dab][Dab]A[Dab][dP]P)) ?
Solution: 0.25

Exercise: Query for P. aeruginosa: what Average MIC does the record show for CC[C@H](C)[C@@H]1NC(=O)[C@H](Cc2c[nH]c3ccccc23)NC(=O)[C@H]([C@@H](C)O)NC(=O)[C@@H]2CCCN2C(=O)[C@H]2CCCN2C(=O)[C@H](CCN)NC(=O)[C@H](C)NC(=O)[C@H](CCN)NC(=O)[C@H](CCCCN)NC(=O)[C@H](Cc2c[nH]c3ccccc23)NC(=O)[C@H](CCN)NC(=O)[C@H](CCN)NC(=O)[C@H](CCCCN)NC(=O)[C@H](CCN)NC1=O [Example 27] (cyclo(TWI[Dab]K[Dab][Dab]WK[Dab]A[Dab][dP]P)) ?
Solution: 0.28

Exercise: Query for P. aeruginosa: what Average MIC does the record show for CC[C@H](C)[C@@H]1NC(=O)[C@H](Cc2c[nH]c3ccccc23)NC(=O)[C@H]([C@@H](C)O)NC(=O)[C@@H]2CCCN2C(=O)[C@H]2CCCN2C(=O)[C@H](CCN)NC(=O)[C@H](C)NC(=O)[C@H](CCN)NC(=O)[C@H](CCN)NC(=O)[C@H](Cc2c[nH]c3ccccc23)NC(=O)[C@H](CCN)NC(=O)[C@@H](CCN)NC(=O)[C@H](CCCN)NC(=O)[C@H](CCN)NC1=O [Example 48] (cyclo(TWI[Dab][Orn][dDab][Dab]W[Dab][Dab]A[Dab][dP]P)) ?
Solution: 0.08

* * *

- Test system: Pseudomonas aeruginosa P1021903
- Type: cell-based
- test-context: P1021903
Non-standard residues stand in square brackets, D forms with d. Residues, ends and D or L forms follow the SMILES beside them. Dab = NCC[C@H](N)C(=O)O; Nva = CCC[C@H](N)C(=O)O
Please respond with reported MIC P. aeruginosa P1021903 for every item in the list.
Write it as a number; the unit µg/mL goes unstated.

Exercise: Query for Pseudomonas aeruginosa P1021903: what MIC P. aeruginosa P1021903 does the record show for CCC[C@@H]1NC(=O)[C@H](CCN)NC(=O)[C@H](CCN)NC(=O)[C@H](Cc2c[nH]c3ccccc23)NC(=O)[C@H](CCN)NC(=O)[C@H](CCN)NC(=O)[C@H](CCCCN)NC(=O)[C@H](CCN)NC(=O)[C@H]([C@@H](C)CC)NC(=O)[C@H](Cc2c[nH]c3ccccc23)NC(=O)[C@H]([C@@H](C)O)NC(=O)[C@@H]2CCCN2C(=O)[C@H]2CCCN2C(=O)[C@H](CCN)NC1=O [Example 10] (cyclo(TWI[Dab]K[Dab][Dab]W[Dab][Dab][Nva][Dab][dP]P)) ?
Solution: 0.13

Exercise: Query for Pseudomonas aeruginosa P1021903: what MIC P. aeruginosa P1021903 does the record show for CC(C)[C@@H]1NC(=O)[C@H](Cc2c[nH]c3ccccc23)NC(=O)[C@H]([C@@H](C)O)NC(=O)[C@@H]2CCCN2C(=O)[C@H]2CCCN2C(=O)[C@H](CCN)NC(=O)[C@H](C)NC(=O)[C@H](CCN)NC(=O)[C@H](CCN)NC(=O)[C@H](Cc2c[nH]c3ccccc23)NC(=O)[C@H](CCN)NC(=O)[C@H](CCN)NC(=O)[C@H](CCCCN)NC(=O)[C@H](CCN)NC1=O [Example 32] (cyclo(TWV[Dab]K[Dab][Dab]W[Dab][Dab]A[Dab][dP]P)) ?
Solution: 0.05

* * *

Please respond with reported Hemolysis at 100 μg/ml for every item in the list.
- System: human red blood cells (hRBC)
- protocol-notes: Hemolysis
- Format: cell-based
- test-context: 100
Non-standard residues stand in square brackets, D forms with d. Residues, ends and D or L forms follow the SMILES beside them. Cha = N[C@@H](CC1CCCCC1)C(=O)O; Chg = N[C@H](C(=O)O)C1CCCCC1; Tle = CC(C)(C)[C@H](N)C(=O)O; dDab = NCC[C@@H](N)C(=O)O; Orn = NCCC[C@H](N)C(=O)O; Dab = NCC[C@H](N)C(=O)O; Abu = CC[C@H](N)C(=O)O
Show the value, then the unit it is measured in.

Exercise: Please report the recorded Hemolysis at 100 μg/ml for CC[C@H](C)[C@@H]1NC(=O)[C@H](Cc2c[nH]c3ccccc23)NC(=O)[C@H]([C@@H](C)O)NC(=O)[C@@H]2CCCN2C(=O)[C@H]2CCCN2C(=O)[C@H](CCN)NC(=O)[C@H](CC(N)=O)NC(=O)[C@H](CCN)NC(=O)[C@H](CCN)NC(=O)[C@H](Cc2c[nH]c3ccccc23)NC(=O)[C@H](CCN)NC(=O)[C@H](CCN)NC(=O)[C@H](CCCCN)NC(=O)[C@H](CCN)NC1=O [Example 38] (cyclo(TWI[Dab]K[Dab][Dab]W[Dab][Dab]N[Dab][dP]P)) .
Solution: 0.5%

Exercise: Please report the recorded Hemolysis at 100 μg/ml for CC[C@@H]1NC(=O)[C@H](CCN)NC(=O)[C@H](CCN)NC(=O)[C@H](Cc2c[nH]c3ccccc23)NC(=O)[C@H](CCN)NC(=O)[C@H](CCN)NC(=O)[C@H](CCCCN)NC(=O)[C@H](CCN)NC(=O)[C@H]([C@@H](C)CC)NC(=O)[C@H](Cc2c[nH]c3ccccc23)NC(=O)[C@H]([C@@H](C)O)NC(=O)[C@@H]2CCCN2C(=O)[C@H]2CCCN2C(=O)[C@H](CCN)NC1=O [Example 6] (cyclo(TWI[Dab]K[Dab][Dab]W[Dab][Dab][Abu][Dab][dP]P)) .
Solution: 0.2%

Exercise: Please report the recorded Hemolysis at 100 μg/ml for CC[C@H](C)[C@@H]1NC(=O)[C@H](Cc2c[nH]c3ccccc23)NC(=O)[C@H]([C@@H](C)O)NC(=O)[C@@H]2CCCN2C(=O)[C@H]2CCCN2C(=O)[C@H](CCN)NC(=O)[C@H](CC2CCCCC2)NC(=O)[C@H](CCN)NC(=O)[C@H](CCN)NC(=O)[C@H](Cc2c[nH]c3ccccc23)NC(=O)[C@H](CCN)NC(=O)[C@H](CCN)NC(=O)[C@H](CCCCN)NC(=O)[C@H](CCN)NC1=O [Example 12] (cyclo(TWI[Dab]K[Dab][Dab]W[Dab][Dab][Cha][Dab][dP]P)) .
Solution: 0.7%

Exercise: Please report the recorded Hemolysis at 100 μg/ml for CC[C@H](C)[C@@H]1NC(=O)[C@H](Cc2c[nH]c3ccccc23)NC(=O)[C@H]([C@@H](C)O)NC(=O)[C@@H]2CCCN2C(=O)[C@H]2CCCN2C(=O)[C@H](CCCCN)NC(=O)[C@H](C)NC(=O)[C@H](CCN)NC(=O)[C@H](CCN)NC(=O)[C@H](Cc2c[nH]c3ccccc23)NC(=O)[C@H](CCN)NC(=O)[C@H](CCN)NC(=O)[C@H](CCCCN)NC(=O)[C@H](CCN)NC1=O [Example 28] (cyclo(TWI[Dab]K[Dab][Dab]W[Dab][Dab]AK[dP]P)) .
Solution: 0.1%

Exercise: Please report the recorded Hemolysis at 100 μg/ml for CC[C@H](C)[C@@H]1NC(=O)[C@H](Cc2c[nH]c3ccccc23)NC(=O)[C@H]([C@@H](C)O)NC(=O)[C@@H]2CCCN2C(=O)[C@H]2CCCN2C(=O)[C@H](CCN)NC(=O)[C@H]([C@@H](C)CC)NC(=O)[C@H](CCN)NC(=O)[C@H](CCN)NC(=O)[C@H](Cc2c[nH]c3ccccc23)NC(=O)[C@H](CCN)NC(=O)[C@H](CCN)NC(=O)[C@H](CCCCN)NC(=O)[C@H](CCN)NC1=O [Example 8] (cyclo(TWI[Dab]K[Dab][Dab]W[Dab][Dab]I[Dab][dP]P)) .
Solution: 0%

Exercise: Please report the recorded Hemolysis at 100 μg/ml for CC[C@H](C)[C@@H]1NC(=O)[C@H](Cc2c[nH]c3ccccc23)NC(=O)[C@H]([C@@H](C)O)NC(=O)[C@@H]2CCCN2C(=O)[C@H]2CCCN2C(=O)[C@H](CCN)NC(=O)[C@H](C(C)(C)C)NC(=O)[C@H](CCN)NC(=O)[C@H](CCN)NC(=O)[C@H](Cc2c[nH]c3ccccc23)NC(=O)[C@H](CCN)NC(=O)[C@H](CCN)NC(=O)[C@H](CCCCN)NC(=O)[C@H](CCN)NC1=O [Example 36] (cyclo(TWI[Dab]K[Dab][Dab]W[Dab][Dab][Tle][Dab][dP]P)) .
Solution: 0.1%

Exercise: Please report the recorded Hemolysis at 100 μg/ml for CC[C@H](C)[C@@H]1NC(=O)[C@H](Cc2c[nH]c3ccccc23)NC(=O)[C@H]([C@@H](C)O)NC(=O)[C@@H]2CCCN2C(=O)[C@H]2CCCN2C(=O)[C@H](CCN)NC(=O)[C@H](C)NC(=O)[C@H](CCN)NC(=O)[C@H](CCN)NC(=O)[C@H](Cc2c[nH]c3ccccc23)NC(=O)[C@H](CCN)NC(=O)[C@@H](CCN)NC(=O)[C@H](CCCN)NC(=O)[C@H](CCN)NC1=O [Example 48] (cyclo(TWI[Dab][Orn][dDab][Dab]W[Dab][Dab]A[Dab][dP]P)) .
Solution: 0.2%

Exercise: Please report the recorded Hemolysis at 100 μg/ml for CC[C@H](C)[C@@H]1NC(=O)[C@H](Cc2c[nH]c3ccccc23)NC(=O)[C@H]([C@@H](C)O)NC(=O)[C@@H]2CCCN2C(=O)[C@H]2CCCN2C(=O)[C@H](CCN)NC(=O)[C@H](C2CCCCC2)NC(=O)[C@H](CCN)NC(=O)[C@H](CCN)NC(=O)[C@H](Cc2c[nH]c3ccccc23)NC(=O)[C@H](CCN)NC(=O)[C@H](CCN)NC(=O)[C@H](CCCCN)NC(=O)[C@H](CCN)NC1=O [Example 11] (cyclo(TWI[Dab]K[Dab][Dab]W[Dab][Dab][Chg][Dab][dP]P)) .
Solution: 0.5%

Exercise: Please report the recorded Hemolysis at 100 μg/ml for CC[C@H](C)[C@@H]1NC(=O)[C@H](Cc2ccc(O)cc2)NC(=O)[C@H](CC(=O)O)NC(=O)[C@@H]2CCCN2C(=O)[C@H]2CCCN2C(=O)[C@H](CCN)NC(=O)[C@H](C)NC(=O)[C@H](CCN)NC(=O)[C@H](CCN)NC(=O)[C@H](Cc2c[nH]c3ccccc23)NC(=O)[C@H](CCN)NC(=O)[C@@H](CCN)NC(=O)[C@H](CCCCN)NC(=O)[C@H](CCN)NC1=O [Example 42] (cyclo(DYI[Dab]K[dDab][Dab]W[Dab][Dab]A[Dab][dP]P)) .
Solution: 0.2%
